biological target: ATP-dependent translocase ABCB1 (Homo sapiens, UniProt P08183); experiment: Reversal of P-glycoprotein-mediated multidrug resistance in human MDR1 gene transfected mouse L5178 cells assessed as fluorescence activity ratio at 4 ug/ml by rhodamine-123 exclusion test; format: cell-based
Sequence (P08183 whole entry): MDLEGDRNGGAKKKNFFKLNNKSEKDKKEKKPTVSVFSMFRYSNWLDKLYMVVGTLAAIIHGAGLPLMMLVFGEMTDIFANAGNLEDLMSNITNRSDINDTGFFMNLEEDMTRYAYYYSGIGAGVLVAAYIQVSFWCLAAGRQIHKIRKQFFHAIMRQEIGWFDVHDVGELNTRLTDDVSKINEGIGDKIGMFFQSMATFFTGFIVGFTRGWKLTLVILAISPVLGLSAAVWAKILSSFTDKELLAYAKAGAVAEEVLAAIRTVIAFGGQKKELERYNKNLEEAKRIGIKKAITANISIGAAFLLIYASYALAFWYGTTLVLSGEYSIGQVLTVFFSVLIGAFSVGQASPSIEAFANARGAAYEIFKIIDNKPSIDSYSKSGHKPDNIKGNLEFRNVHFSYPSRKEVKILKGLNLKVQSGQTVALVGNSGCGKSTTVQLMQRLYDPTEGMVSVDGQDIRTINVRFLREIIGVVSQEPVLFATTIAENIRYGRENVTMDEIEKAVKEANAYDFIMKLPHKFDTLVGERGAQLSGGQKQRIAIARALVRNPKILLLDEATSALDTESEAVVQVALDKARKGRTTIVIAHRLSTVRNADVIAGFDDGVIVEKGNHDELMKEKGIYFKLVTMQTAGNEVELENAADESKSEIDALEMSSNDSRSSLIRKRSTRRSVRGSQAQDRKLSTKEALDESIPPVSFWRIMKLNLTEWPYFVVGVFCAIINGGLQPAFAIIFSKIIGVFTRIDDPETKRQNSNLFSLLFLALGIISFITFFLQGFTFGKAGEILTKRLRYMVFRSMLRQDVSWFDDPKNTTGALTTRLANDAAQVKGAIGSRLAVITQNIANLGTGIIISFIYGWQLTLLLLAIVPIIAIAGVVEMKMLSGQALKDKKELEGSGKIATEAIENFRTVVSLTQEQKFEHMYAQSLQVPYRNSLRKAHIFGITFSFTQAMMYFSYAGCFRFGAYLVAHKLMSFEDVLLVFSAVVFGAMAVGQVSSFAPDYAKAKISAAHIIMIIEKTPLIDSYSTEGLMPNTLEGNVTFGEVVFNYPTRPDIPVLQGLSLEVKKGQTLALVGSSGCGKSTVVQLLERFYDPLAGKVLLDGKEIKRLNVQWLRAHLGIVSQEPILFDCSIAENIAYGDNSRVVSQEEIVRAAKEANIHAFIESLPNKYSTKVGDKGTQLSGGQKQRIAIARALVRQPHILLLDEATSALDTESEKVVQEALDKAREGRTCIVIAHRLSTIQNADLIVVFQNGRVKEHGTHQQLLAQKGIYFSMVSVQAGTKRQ
readout kind: Ratio

# get_value(readout='Ratio', item= CC(=O)O[C@H]1[C@@H](COC(=O)c2ccccc2)C[C@]2(OC(=O)/C=C/c3ccccc3)C(=O)/C(C)=C/[C@@H]3[C@H](CC[C@@]4(C)O[C@@H]4[C@@H]12)C3(C)C )
68.9

Again, but for CCC(=O)OC[C@H]1C[C@]2(OC(=O)/C=C/c3ccccc3)C(=O)/C(C)=C/[C@@H]3[C@H](CC[C@@]4(C)O[C@@H]4[C@H]2[C@H]1OC(=O)CC)C3(C)C
61.6

Again, but for C=C1[C@@H](OC(=O)C(C)CC)[C@@H](OC(C)=O)C(=O)C(C)(C)/C=C/[C@H](C)[C@H](OC(=O)c2ccccc2)[C@@]2(O)C[C@H](C)[C@H](OC(C)=O)[C@@H]2[C@H]1OC(C)=O (stereo partly specified)
39.8

Again, but for CCCC(=O)OC[C@H]1C[C@]2(OC(=O)/C=C/c3ccccc3)C(=O)/C(C)=C/[C@@H]3[C@H](CC[C@@]4(C)O[C@@H]4[C@H]2[C@H]1OC(=O)CCC)C3(C)C
62.4

Again, but for C=C1[C@@H](OC(=O)C(C)C)[C@@H](OC(C)=O)C(=O)C(C)(C)/C=C/[C@H](C)[C@H](OC(=O)c2ccccc2)[C@@]2(O)C[C@H](C)[C@H](OC(C)=O)[C@@H]2[C@H]1OC(C)=O
25

***
# get_value(readout='Ratio', item= C=C1[C@@H](OC(=O)c2ccccc2)[C@@H](OC(C)=O)[C@@H](OC(C)=O)C(C)(C)/C=C/[C@H](C)C(=O)[C@@]2(OC(C)=O)C[C@@](C)(OC(=O)c3ccccc3)[C@H](OC(C)=O)[C@@H]2[C@H]1OC(C)=O )
81

---

# reported Flu intensity; entries follow
biological target: ATP-dependent translocase ABCB1 (Homo sapiens); assay: Reversal of P-glycoprotein-mediated multidrug resistance in human MDR1 gene transfected mouse L5178 cells assessed as mean fluorescence intensity at 4 ug/ml by rhodamine-123 exclusion test; format: cell-based
Number, no unit, nothing else.

So what Flu intensity did CCC(=O)OC[C@H]1C[C@]2(OC(=O)/C=C/c3ccccc3)C(=O)/C(C)=C/[C@@H]3[C@H](CC[C@@]4(C)O[C@@H]4[C@H]2[C@H]1OC(=O)CC)C3(C)C get with ATP-dependent translocase ABCB1 (Homo sapiens)?
427.4

***
So what Flu intensity did CCCC(=O)OC[C@H]1C[C@]2(OC(=O)/C=C/c3ccccc3)C(=O)/C(C)=C/[C@@H]3[C@H](CC[C@@]4(C)O[C@@H]4[C@H]2[C@H]1OC(=O)CCC)C3(C)C get with ATP-dependent translocase ABCB1 (Homo sapiens)?
433.4

Again, but for C=C1[C@@H](OC(=O)C(C)CC)[C@@H](OC(C)=O)C(=O)C(C)(C)/C=C/[C@H](C)[C@H](OC(=O)c2ccccc2)[C@@]2(O)C[C@H](C)[C@H](OC(C)=O)[C@@H]2[C@H]1OC(C)=O (stereo partly specified)
554

Again, but for CC(=O)O[C@H]1[C@@H](COC(=O)c2ccccc2)C[C@]2(OC(=O)/C=C/c3ccccc3)C(=O)/C(C)=C/[C@@H]3[C@H](CC[C@@]4(C)O[C@@H]4[C@@H]12)C3(C)C
478.3

Again, but for C=C1[C@@H](OC(=O)c2ccccc2)[C@@H](OC(C)=O)[C@@H](OC(C)=O)C(C)(C)/C=C/[C@H](C)C(=O)[C@@]2(OC(C)=O)C[C@@](C)(OC(=O)c3ccccc3)[C@H](OC(C)=O)[C@@H]2[C@H]1OC(C)=O
1127.4

Again, but for C=C1[C@@H](OC(=O)C(C)C)[C@@H](OC(C)=O)C(=O)C(C)(C)/C=C/[C@H](C)[C@H](OC(=O)c2ccccc2)[C@@]2(O)C[C@H](C)[C@H](OC(C)=O)[C@@H]2[C@H]1OC(C)=O
347.6

---

test: Lipophilicity, log P of the compound; format: physicochemical; settings: octanol/water
# reported logP; entries follow
Number, no unit, nothing else.

# get_value(readout='logP', item= C=C1[C@@H](OC(=O)c2ccccc2)[C@@H](OC(C)=O)[C@@H](OC(C)=O)C(C)(C)/C=C/[C@H](C)C(=O)[C@@]2(OC(C)=O)C[C@@](C)(OC(=O)c3ccccc3)[C@H](OC(C)=O)[C@@H]2[C@H]1OC(C)=O )
6.7

Again, but for CC1(C)[C@@H]2/C=C(\CO)C(=O)[C@@]3(OC(=O)/C=C/c4ccccc4)C[C@H](COC(=O)c4ccccc4)[C@H](O)[C@@H]3[C@H]3O[C@]3(C)CC[C@@H]21
5.9

Then there is this molecule:
# get_value(readout='logP', item= C/C1=C\[C@@H]2[C@H](CC[C@@]3(C)O[C@@H]3[C@H]3[C@@H](O)[C@@H](C)C[C@]3(OC(=O)/C=C/c3ccccc3)C1=O)C2(C)C )
5.8

---

biological target: ATP-dependent translocase ABCB1 (Homo sapiens, UniProt P08183); test: Reversal of P-glycoprotein-mediated multidrug resistance in human MDR1 gene transfected mouse L5178 cells assessed as fluorescence activity ratio at 40 ug/ml by flow cytometry; assay type: cell-based
readout kind: Ratio
Number, no unit, nothing else.

Recorded results for 5 compounds are shown here.
# get_value(readout='Ratio', item= C=C1[C@@H](OC(=O)C(C)CC)[C@@H](OC(C)=O)C(=O)C(C)(C)/C=C/[C@H](C)[C@H](OC(=O)c2ccccc2)[C@@]2(O)C[C@H](C)[C@H](OC(C)=O)[C@@H]2[C@H]1OC(C)=O (stereo partly specified) )
98.9

Again, but for CC(=O)O[C@H]1[C@@H](COC(=O)c2ccccc2)C[C@]2(OC(=O)/C=C/c3ccccc3)C(=O)/C(C)=C/[C@@H]3[C@H](CC[C@@]4(C)O[C@@H]4[C@@H]12)C3(C)C
71.6

Again, but for C=C1[C@@H](OC(=O)c2ccccc2)[C@@H](OC(C)=O)[C@@H](OC(C)=O)C(C)(C)/C=C/[C@H](C)C(=O)[C@@]2(OC(C)=O)C[C@@](C)(OC(=O)c3ccccc3)[C@H](OC(C)=O)[C@@H]2[C@H]1OC(C)=O
106.2

Again, but for C=C1[C@@H](OC(=O)C(C)C)[C@@H](OC(C)=O)C(=O)C(C)(C)/C=C/[C@H](C)[C@H](OC(=O)c2ccccc2)[C@@]2(O)C[C@H](C)[C@H](OC(C)=O)[C@@H]2[C@H]1OC(C)=O
97.3

Again, but for CCCC(=O)OC[C@H]1C[C@]2(OC(=O)/C=C/c3ccccc3)C(=O)/C(C)=C/[C@@H]3[C@H](CC[C@@]4(C)O[C@@H]4[C@H]2[C@H]1OC(=O)CCC)C3(C)C
54.2

***
# get_value(readout='Ratio', item= CCC(=O)OC[C@H]1C[C@]2(OC(=O)/C=C/c3ccccc3)C(=O)/C(C)=C/[C@@H]3[C@H](CC[C@@]4(C)O[C@@H]4[C@H]2[C@H]1OC(=O)CC)C3(C)C )
78

---

assay: Potentiation of epirubicin-induced cytotoxicity against mouse L5178 cells assessed as fractional inhibitory index by checkerboard microplate method; assay type: functional
readout kind: fractional inhibitory concentration index (FICI)
Number, no unit, nothing else.

Recorded results for 2 compounds are shown here.
# get_value(readout='fractional inhibitory concentration index (FICI)', item= CC(=O)O[C@H]1[C@@H](COC(=O)c2ccccc2)C[C@]2(OC(=O)/C=C/c3ccccc3)C(=O)/C(C)=C/[C@@H]3[C@H](CC[C@@]4(C)O[C@@H]4[C@@H]12)C3(C)C )
0.14

Again, but for C=C1[C@@H](OC(=O)C(C)CC)[C@@H](OC(C)=O)C(=O)C(C)(C)/C=C/[C@H](C)[C@H](OC(=O)c2ccccc2)[C@@]2(O)C[C@H](C)[C@H](OC(C)=O)[C@@H]2[C@H]1OC(C)=O (stereo partly specified)
0.18

***
# get_value(readout='fractional inhibitory concentration index (FICI)', item= CCCC(=O)OC[C@H]1C[C@]2(OC(=O)/C=C/c3ccccc3)C(=O)/C(C)=C/[C@@H]3[C@H](CC[C@@]4(C)O[C@@H]4[C@H]2[C@H]1OC(=O)CCC)C3(C)C )
0.14

Again, but for C=C1[C@@H](OC(=O)C(C)C)[C@@H](OC(C)=O)C(=O)C(C)(C)/C=C/[C@H](C)[C@H](OC(=O)c2ccccc2)[C@@]2(O)C[C@H](C)[C@H](OC(C)=O)[C@@H]2[C@H]1OC(C)=O
0.25

Again, but for C=C1[C@@H](OC(=O)c2ccccc2)[C@@H](OC(C)=O)[C@@H](OC(C)=O)C(C)(C)/C=C/[C@H](C)C(=O)[C@@]2(OC(C)=O)C[C@@](C)(OC(=O)c3ccccc3)[C@H](OC(C)=O)[C@@H]2[C@H]1OC(C)=O
0.08

Again, but for CCC(=O)OC[C@H]1C[C@]2(OC(=O)/C=C/c3ccccc3)C(=O)/C(C)=C/[C@@H]3[C@H](CC[C@@]4(C)O[C@@H]4[C@H]2[C@H]1OC(=O)CC)C3(C)C
0.07
